Reported TGI values follow for various compounds
tested on: HCT-116 colon; assay: NCI tumour cell line growth inhibition, 48 h
value.type: TGI

# compound, measurement
records = [
    ("C/C(=N\\Nc1nc2ccccc2[nH]1)c1cnccn1", "> 38 µM"),
    ("CCCCCCCCCCCCCCCC(=O)OCCOCCOCCOCCOCCOC(=O)CCCCCCCCCCCCCCC", "> 100 µM"),
    ("Cc1ccc(N=C2N=C(N3CC(C)OC(C)C3)c3ccccc32)cc1 (stereo unspecified)", "48.8 µM"),
    ("[N-]=[N+]=NCCCn1c2c(c3ccc([N+](=O)[O-])cc3c1=O)C(=O)c1cc(-c3ccccc3)ccc1-2", "> 100 µM"),
    ("CCS(=O)c1c2cc(OC)ccc2nc2ccc(OC)cc12 (stereo unspecified)", "7.52 µM"),
    ("COc1c(C(C)(C)C)cc(CC2C(=O)C=CC2=O)cc1C(C)(C)C", "13 µM"),
    ("CCCCNC(=S)OCCC(C)CCCC(C)C (stereo unspecified)", "> 100 µM"),
    ("COC(=O)CN1C(=O)C2(C(=O)OC)OC1(c1ccc([N+](=O)[O-])cc1)C1C(=O)N(c3ccccc3)C(=O)C12 (stereo unspecified)", "> 100 µM"),
    ("C=CCCCN1CCCC(C)C1=S (stereo unspecified)", "> 100 µM"),
    ("CO[C@@]12C[C@@H](C)[C@]34O[C@H]3C[C@]3(C)O[C@]43CC1=C(C)C(=O)O2", "> 100 µM"),
    ("COc1c(I)c(OC)c2c(c1I)O[C@@H]1OCC[C@H]21", "> 100 µM"),
    ("O=C(Nc1ccccc1)OC1OC(COC(=O)c2ccccc2)C(OC(=O)c2ccccc2)C1OS(=O)(=O)c1ccc([N+](=O)[O-])cc1 (stereo unspecified)", "> 100 µM"),
    ("COc1ccc(N2C(=O)/C(=C\\c3ccccc3)SC2c2cc(OC)c(OC)c(OC)c2)cc1 (stereo unspecified)", "> 100 µM"),
    ("N#C/C(=C1\\OC(=N)C(c2ccccc2)C1=O)c1ccccc1 (stereo unspecified)", "31.6 µM"),
    ("O=[N+]([O-])c1cc(-[n+]2cc([O-])on2)ccc1Cl", "39.8 µM"),
    ("CCOC(=O)C1C(c2ccc(OC)cc2)c2c([nH][nH]c2=O)CC1(C)O (stereo unspecified)", "> 100 µM"),
    ("CC1=CP(=O)(c2ccccc2)C=C(C)C1=C(Cl)Cl (stereo unspecified)", "10.1 µM"),
    ("COc1ccc(O)cc1C(O)c1ccccc1 (stereo unspecified)", "> 100 µM"),
    ("Clc1cccc(CNc2c3ccccc3nc3ccccc23)c1", "3.41 µM"),
    ("CN(C)C(=S)C(Cl)(c1ccccc1)c1ccccc1", "> 100 µM"),
    ("CC(C)OC(=O)[C@H]1ON2O[C@H](O[C@@H]3CCCC[C@H]3c3ccccc3)C([Si](C)(C)c3ccccc3)[C@H]3OC(=O)[C@@H]1C32 (stereo partly specified)", "> 100 µM"),
]

====

system: XF 498 CNS; assay: NCI tumour cell line growth inhibition, 48 h
value.type: TGI

# molecule, measurement
data = [
    ("NC(=O)c1ccc([N+](=O)[O-])cc1", "> 100 µM"),
    ("C[N+](C)(C)c1cc[c]([Sn]([c]2ccc([N+](C)(C)C)cc2)([c]2ccc([N+](C)(C)C)cc2)[c]2ccc([N+](C)(C)C)cc2)cc1", "> 100 µM"),
    ("Nc1nc(N)c2ncn(CCOC(c3ccccc3)P(=O)(O)O)c2n1 (configuration not stated)", "> 100 µM"),
    ("CCn1c(=O)c(C(=O)O)c(Cl)c2cc3c(cc21)OCO3", "> 100 µM"),
    ("O=C(N/C(=C\\c1ccccc1O)c1nc2ccccc2[nH]1)c1ccccc1", "> 100 µM"),
    ("COc1cc2c(oc(=O)c3cc4cc([Si](C)(C)C)oc4c(OC)c32)c2cccc(O)c12", "> 100 µM"),
    ("CC(C)OC/N=C(/N)NC#N", "> 100 µM"),
    ("COc1cc(/C=C(\\NC(=O)c2ccccc2)c2nc3ncncc3[nH]2)cc(OC)c1OC", "> 100 µM"),
    ("CSc1ccc(NC(=O)C2c3[nH]c4ccccc4c3C3CCC(C(C)(C)C)CC3C2C(=O)O)cc1 (configuration not stated)", "39.7 µM"),
    ("COc1cc([C@@H]2c3cc4c(cc3[C@@H](OC(=O)c3cccc(N)c3)C3COC(=O)[C@@H]32)OCO4)cc(OC)c1O (some centres not stated)", "35 µM"),
    ("CC(C)(C)[C@H]1CO[C@]2(c3ccccc3)[C@@H]3C[C@@H]3C(=O)N12", "> 100 µM"),
    ("Cc1ccc(N=C2N=C(N3CC(C)OC(C)C3)c3ccccc32)cc1 (configuration not stated)", "64.5 µM"),
]

====

Reported TGI values follow for various compounds
system: SK-OV-3 ovarian; assay: NCI tumour cell line growth inhibition, 48 h

# compound, experimental.target, TGI
records = [
    ("N#Cc1nc(C#N)c(Sc2ccccc2)c(Sc2ccccc2)c1Sc1ccccc1", "SK-OV-3 ovarian", "9.01 µM"),
    ("CC1(C)c2ccccc2N2O[C@@H]3C(=O)N(c4ccccc4)C(=O)[C@@H]3C21c1ccccc1 (stereo not given in full)", "SK-OV-3 ovarian", "> 100 µM"),
    ("O=C(CC(C(=O)c1ccsc1)c1ccsc1)c1ccsc1 (stereo not given)", "SK-OV-3 ovarian", "> 100 µM"),
    ("COc1cc(/C=C(\\NC(=O)c2ccccc2)c2nc3ncncc3[nH]2)cc(OC)c1OC", "SK-OV-3 ovarian", "> 100 µM"),
    ("O=C(Nc1cc(F)c(F)cc1C(=O)O)c1ccc(-n2ccnc2)nn1", "SK-OV-3 ovarian", "> 100 µM"),
]

====

test system: CAKI-1 renal; test: NCI tumour cell line growth inhibition, 48 h
value.type: TGI

# compound, value.type, measurement
records = [
    ("O=C(N/C(=C\\c1ccccc1O)c1nc2ccccc2[nH]1)c1ccccc1", "TGI", "> 100 µM"),
    ("COc1ccc2c(c1)/C(=C\\c1c(-c3cc(OC)ccc3OC)nc3sccn13)C(=O)N2", "TGI", "13.8 µM"),
    ("COc1ccc(O)cc1C(O)c1ccccc1 (stereo unspecified)", "TGI", "> 100 µM"),
    ("CCc1c(CNC2=NCCN2)c(CC)c(CNC2=NCCN2)c(CC)c1CNC1=NCCN1", "TGI", "> 100 µM"),
    ("CCCCSCC(NC(=O)/C=C/c1c(C)[nH]c(=O)[nH]c1=O)C(=O)OC (stereo unspecified)", "TGI", "155 µM"),
    ("C=CCOCn1cc(F)c(=O)[nH]c1=O", "TGI", "> 100 µM"),
    ("CS(=O)(=O)c1ccc2nc(-c3ccc(O)cc3)sc2c1", "TGI", "31.4 µM"),
    ("COc1ccc(N2C(=O)/C(=C\\c3ccccc3)SC2c2cc(OC)c(OC)c(OC)c2)cc1 (stereo unspecified)", "TGI", "> 100 µM"),
    ("O=c1[nH][nH]c(=O)n1/N=C/c1ccccc1", "TGI", "> 100 µM"),
    ("CCn1c(=O)c(C(=O)O)c(Cl)c2cc3c(cc21)OCO3", "TGI", "> 100 µM"),
    ("CC(=O)c1ccccc1NC(=O)C(=O)C(C(=O)c1ccccc1-c1ccccc1)C1OC(=O)c2ccccc21 (stereo unspecified)", "TGI", "> 100 µM"),
    ("C#C[C@@]1(O)[C@@H](CO)O[C@@H](n2cc(C(F)(F)F)c3c(N)ncnc32)[C@@H]1O", "TGI", "> 100 µM"),
    ("COc1ccc(CCNC(=O)c2ccccc2C2c3ccc(OCc4ccccc4)cc3Oc3cc(OCc4ccccc4)ccc32)cc1OC", "TGI", "> 100 µM"),
    ("COc1ccc(-c2cn(-c3ccc(OC)c(OC)c3)c(=O)[nH]2)cc1", "TGI", "> 100 µM"),
    ("Nc1nc(Cl)c2ncn(Cc3cccc(CCl)c3)c2n1", "TGI", "5.37 µM"),
    ("O=C(O)CCCNc1ncc2c(n1)-c1ccccc1OC2", "TGI", "> 100 µM"),
    ("O=C(Nc1cc(Cl)ccc1O)c1cccc(Nc2ccnc(C(F)(F)F)c2)c1", "TGI", "12.7 µM"),
    ("CCOC(=O)c1c(N2CCCC2)[nH]c(=O)c(C(c2ccc(Cl)c([N+](=O)[O-])c2)c2c(O)c(C(=O)OCC)c(N3CCCC3)[nH]c2=O)c1O", "TGI", "60.6 µM"),
    ("CCCCCCCCCCCCCCCC(=O)OCCOCCOCCOCCOCCOC(=O)CCCCCCCCCCCCCCC", "TGI", "> 100 µM"),
    ("COc1c(I)c(OC)c2c(c1I)O[C@@H]1OCC[C@H]21", "TGI", "46.1 µM"),
    ("Clc1cccc(CNc2c3ccccc3nc3ccccc23)c1", "TGI", "4.82 µM"),
]

Taken from PubChem BioAssay (NCI).
